- experimental.target: HLA-A*3101 (human)
- test.protocol: inhibition of 125I probe peptide binding to purified HLA
Where no end group is shown, it is not given here. [ ]: non-standard residue; d: D form. Abu = CC[C@H](N)C(=O)O
Exam item: assign Satisfied to entries whose IC50 is below 60 nM and Not satisfied to entries at or above 60 nM. Note that a value of exactly 60 nM receives Not satisfied.

>>> discrete_label("TVLWKDIFHR (synthetic analog peptide) [Her2/neu.166.V2R10]")
"Not satisfied"
>>> discrete_label("IVKGGVLIQR (synthetic analog peptide) [Her2/neu.148.V2]")
"Not satisfied"
>>> discrete_label("BVNBSQFLR (B at positions 1 and 4 = alpha-amino butyric acid (in place of cysteine), synthetic analog peptide; also called BVNBSQFLR) [Her2/neu.528.B1B4]")
"Satisfied"
>>> discrete_label("RTVCAGGCAR (synthetic peptide) [Her2/neu.217]")
"Satisfied"
>>> discrete_label("CVNCSQFLR (synthetic peptide) [Her2/neu.528]")
"Satisfied"
>>> discrete_label("ISWLGLRSLR (synthetic peptide) [Her2/neu.450]")
"Satisfied"
>>> discrete_label("TV[Abu]AGG[Abu]AR (synthetic analog peptide; also called TVBAGGBAR) [Her2/neu.218.B3B7]")
"Not satisfied"
